B1: Osa-1-4 twister ribozyme (parent)
chain: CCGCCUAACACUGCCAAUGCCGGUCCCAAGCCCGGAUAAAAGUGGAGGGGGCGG

# Variants of: B1
# assay name: self-cleavage, relative activity (ratio to wild type); higher = more cleavage; co-transcriptional
test readout: self-cleavage

[[record]]
variant_spec = "C9G G45U"
value_reported = 0.07

[[record]]
variant_spec = "A40G C25U"
value_reported = 0.14

[[record]]
variant_spec = "A36C A46C"
value_reported = 0.07


Recall and state the measured self-cleavage for G22U U43C .
0.1

Recall and state the measured self-cleavage for A41U C33G .
0.1

Recall and state the measured self-cleavage for C52G C9G .
0.86

Recall and state the measured self-cleavage for C32A G54A .
0.11

Recall and state the measured self-cleavage for A16G G35U .
0.93

Recall and state the measured self-cleavage for G48C U12A .
0.07
